experimentalTarget: recombinant hSSAO (Homo sapiens, UniProt Q16853)
Sequence (Q16853 whole entry): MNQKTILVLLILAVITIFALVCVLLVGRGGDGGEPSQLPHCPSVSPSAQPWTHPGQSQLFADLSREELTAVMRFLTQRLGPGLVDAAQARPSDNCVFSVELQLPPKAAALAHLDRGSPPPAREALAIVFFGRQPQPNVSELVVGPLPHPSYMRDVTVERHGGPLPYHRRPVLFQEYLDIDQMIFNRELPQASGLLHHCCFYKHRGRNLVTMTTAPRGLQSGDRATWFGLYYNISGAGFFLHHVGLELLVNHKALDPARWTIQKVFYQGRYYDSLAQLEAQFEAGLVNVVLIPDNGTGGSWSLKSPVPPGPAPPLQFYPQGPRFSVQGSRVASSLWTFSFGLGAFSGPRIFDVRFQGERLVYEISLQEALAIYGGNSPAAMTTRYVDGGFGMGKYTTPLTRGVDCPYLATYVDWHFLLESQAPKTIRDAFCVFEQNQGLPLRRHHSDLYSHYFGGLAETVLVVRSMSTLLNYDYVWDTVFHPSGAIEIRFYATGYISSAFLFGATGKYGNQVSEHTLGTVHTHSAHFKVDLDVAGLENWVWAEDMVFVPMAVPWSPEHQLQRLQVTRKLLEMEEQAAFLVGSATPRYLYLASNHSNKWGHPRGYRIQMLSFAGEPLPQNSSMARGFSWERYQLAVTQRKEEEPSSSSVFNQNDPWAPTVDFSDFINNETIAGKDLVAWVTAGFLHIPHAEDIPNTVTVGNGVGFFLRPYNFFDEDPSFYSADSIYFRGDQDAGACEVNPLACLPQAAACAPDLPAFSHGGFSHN
experimentalProtocol: SSAO/VAP-1 in vitro amine oxidase activity, MAO-Glo assay
assayContext: mean±standard deviation, n=5; substrate 10 μM, pH 7.4; read-out: hSSAO inhibition IC50
propertyMeasured: pIC50
In plain terms, pIC50 is the concentration in mol/L turned into minus its base-10 logarithm.

Request: Enter reported pIC50 observed with recombinant hSSAO (Homo sapiens, UniProt Q16853) for CN1CCC2(CCN(c3ncc(OC/C(=C/F)CN)cn3)CC2)C1=O.Cl.Cl [Example 1, Dihydrochloride]
Response: 7.71
